Tested on: Trypanosoma cruzi
Experimental details: Growth inhibition of Trypanosoma cruzi Tulahuen 2 epimastigotes at 25 uM after 5 days relative to control
Format: functional
Run parameters: Tulahuen 2, 120 h, read-out: GI
inhibition of growth at 25 µM below 60% gives 0 (no); inhibition of growth at 25 µM at or above it gives 1 (yes).

(Q) Threshold query (inhibition of growth at 25 µM >= 60%) on NC1=NS(=O)(=O)N(Cc2ccc(Cl)cc2)c2nc(-c3ccccc3F)[nH]c21
(A) 1 (yes)

(Q) Quick check, inhibition of growth at 25 µM >= 60%? NC1=NS(=O)(=O)Nc2[nH]c(-c3ccccc3)nc21
(A) 0 (no)

(Q) Determine whether this molecule has inhibition of growth at 25 µM no lower than 60%: NC1=NS(=O)(=O)N(Cc2ccccc2)c2nc(-c3ccccc3)[nH]c21
(A) 0 (no)

(Q) Form field: inhibition of growth at 25 µM at least 60%? Entry: NC1=NS(=O)(=O)Nc2nc(-c3ccccc3F)[nH]c21
(A) 0 (no)

(Q) Answer whether inhibition of growth at 25 µM of NC1=NS(=O)(=O)Nc2nc(C3CCOC3)[nH]c21 (stereo unspecified) is greater than or equal to 60%.
(A) 0 (no)

(Q) Exam item: decide whether the reported inhibition of growth at 25 µM for CN1c2nc(-c3ccccc3)[nH]c2C(N)=NS1(=O)=O is at least 60%.
(A) 0 (no)

Source of measurements: ChEMBL document CHEMBL4138089
